Target: glucocorticoid receptor (Homo sapiens)
Sequence (P04150 1-777): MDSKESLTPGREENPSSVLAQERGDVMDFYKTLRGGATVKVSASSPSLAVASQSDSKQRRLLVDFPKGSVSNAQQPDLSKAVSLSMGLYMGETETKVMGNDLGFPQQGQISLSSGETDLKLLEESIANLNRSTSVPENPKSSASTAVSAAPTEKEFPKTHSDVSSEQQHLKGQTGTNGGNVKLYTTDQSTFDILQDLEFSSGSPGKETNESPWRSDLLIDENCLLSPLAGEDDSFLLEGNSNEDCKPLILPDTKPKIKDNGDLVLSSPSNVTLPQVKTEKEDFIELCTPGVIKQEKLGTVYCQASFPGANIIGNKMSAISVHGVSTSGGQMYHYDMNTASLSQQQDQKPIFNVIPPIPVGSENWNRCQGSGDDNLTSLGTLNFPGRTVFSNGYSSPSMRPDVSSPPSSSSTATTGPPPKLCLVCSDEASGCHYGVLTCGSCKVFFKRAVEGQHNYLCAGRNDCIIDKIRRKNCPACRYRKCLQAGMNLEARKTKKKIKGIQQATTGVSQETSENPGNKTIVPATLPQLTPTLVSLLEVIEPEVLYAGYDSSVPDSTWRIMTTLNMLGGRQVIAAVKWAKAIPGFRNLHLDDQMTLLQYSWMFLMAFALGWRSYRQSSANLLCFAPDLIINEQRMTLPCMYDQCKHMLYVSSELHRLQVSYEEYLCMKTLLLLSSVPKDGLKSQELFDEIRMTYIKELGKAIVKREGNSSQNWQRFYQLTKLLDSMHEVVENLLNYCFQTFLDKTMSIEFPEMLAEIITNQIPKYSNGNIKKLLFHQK
pKi: −log10 of the molar value.
Reported pKi values for the following compounds.

Field: example entries. Status: answers known.
[
  {
    "compound": "CNS(=O)(=O)c1cc(C)ccc1C=C1c2ccccc2CCc2ccccc21 [Example 2]",
    "readout-value": "> 6.30"
  },
  {
    "compound": "Oc1cccc(/C=C2\\c3ccccc3CCc3c(Br)cccc32)c1 [Example 372]",
    "readout-value": "> 6.00"
  },
  {
    "compound": "CS(=O)(=O)Nc1cccc(C=C2c3ccc(Cl)cc3CSc3ccccc32)c1 [Example 693]",
    "readout-value": "> 6.30"
  },
  {
    "compound": "O=c1[nH]c2cc(/C=C3\\c4ccc(F)cc4CCc4ncccc43)ccc2s1 [Example 536]",
    "readout-value": "> 6.30"
  }
]

query: Consider the compound CSc1ccc2c(c1)CCc1ccccc1/C2=C\c1cccc(NS(C)(=O)=O)c1 [Example 388] and give its measured pKi.
result: > 6.30

###

Biological target: glucocorticoid receptor (Homo sapiens, UniProt P04150)
Sequence (P04150 1-777): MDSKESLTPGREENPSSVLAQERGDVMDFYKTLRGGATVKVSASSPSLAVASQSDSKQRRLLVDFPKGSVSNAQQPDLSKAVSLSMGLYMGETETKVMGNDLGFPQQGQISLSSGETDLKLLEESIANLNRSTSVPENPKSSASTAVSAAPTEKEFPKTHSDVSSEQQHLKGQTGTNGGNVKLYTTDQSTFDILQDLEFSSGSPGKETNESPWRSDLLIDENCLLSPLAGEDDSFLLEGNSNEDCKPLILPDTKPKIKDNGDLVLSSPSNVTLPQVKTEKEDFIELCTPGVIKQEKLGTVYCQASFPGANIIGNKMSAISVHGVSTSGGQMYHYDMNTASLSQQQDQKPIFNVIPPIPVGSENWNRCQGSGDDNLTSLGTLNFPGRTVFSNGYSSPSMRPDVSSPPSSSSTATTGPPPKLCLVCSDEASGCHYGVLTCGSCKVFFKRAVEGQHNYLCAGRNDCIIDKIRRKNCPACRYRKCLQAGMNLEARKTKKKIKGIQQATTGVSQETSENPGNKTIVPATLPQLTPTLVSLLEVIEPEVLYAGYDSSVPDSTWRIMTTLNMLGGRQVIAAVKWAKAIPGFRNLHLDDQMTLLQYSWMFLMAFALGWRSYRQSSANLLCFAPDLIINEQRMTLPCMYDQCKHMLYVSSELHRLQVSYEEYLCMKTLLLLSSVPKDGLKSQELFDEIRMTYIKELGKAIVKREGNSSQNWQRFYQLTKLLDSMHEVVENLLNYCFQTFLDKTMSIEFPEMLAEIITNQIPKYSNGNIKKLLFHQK
Reported Ki values for the following compounds.

[
  {
    "compound": "CS(=O)(=O)Nc1ccc(C=C2c3ccccc3CCc3cc(Cl)ccc32)cc1 [Example 395]",
    "readout-value": "< 10000 nM"
  },
  {
    "compound": "CS(=O)(=O)Nc1cccc(/C=C2/c3ccc(F)cc3CCc3nc(C(F)(F)F)ccc32)c1 [Example 521]",
    "readout-value": "< 500 nM"
  },
  {
    "compound": "COc1ccc2c(c1)COc1cc(F)ccc1/C2=C(/C)c1cccc(NS(C)(=O)=O)c1 [Example 819]",
    "readout-value": "< 500 nM"
  },
  {
    "compound": "CS(=O)(=O)Nc1cccc(/C=C2\\c3ccccc3CCc3sc(Cl)cc32)c1 [Example 481]",
    "readout-value": "< 500 nM"
  },
  {
    "compound": "CS(=O)(=O)Nc1cccc(/C=C2/c3ccc(Cl)cc3CCc3sccc32)c1 [Example 499]",
    "readout-value": "< 500 nM"
  },
  {
    "compound": "C/C(=C1/c2ccc(F)cc2CCc2ncccc21)c1cc(F)cc(NS(C)(=O)=O)c1 [Example 836]",
    "readout-value": "< 500 nM"
  },
  {
    "compound": "Oc1cccc(CC2c3ccccc3CCc3ccccc32)c1 [Example 126]",
    "readout-value": "< 500 nM"
  },
  {
    "compound": "CS(=O)(=O)Nc1cccc(/C=C2/c3ccccc3CCc3ccc(S(C)(=O)=O)cc32)c1 [Example 323]",
    "readout-value": "< 500 nM"
  }
]

query: Consider the compound Oc1cccc(C=C2c3ccc(O)cc3CCc3cc(O)ccc32)c1 [Example 194] and give its measured Ki.
result: < 500 nM

query: Same for O=Cc1cccc2c1CCc1ccccc1/C2=C/c1cccc(O)c1 [Example 379]
result: < 10000 nM

query: Same for CS(=O)(=O)Nc1cccc(/C=C2\c3ccc(Cl)cc3COc3ccccc32)c1 [Example 725]
result: < 500 nM

query: Same for CC(=C1c2ccc(Cl)cc2CCc2cc(Cl)ccc21)c1cccc(NS(C)(=O)=O)c1 [Example 777]
result: < 500 nM
